system: P. atrosepticum SCRI1043; assay: Quantitative capillary chemotaxis assay, wild type; type: cell-based, Pectobacterium atrosepticum; settings: wild type SCRI1043, 1 mM ligand, 30 min
parameter measured: chemotaxis (capillary assay)

# compound, parameter measured, result
rows = [
    ("O=P(O)(O)OC(CO)CO [glycerol 2-phosphate]", "chemotaxis (capillary assay)", "Modest chemoattraction"),
    ("O=C(CO)COP(=O)(O)O [dihydroxyacetone phosphate]", "chemotaxis (capillary assay)", "Modest chemoattraction"),
    ("O=P(O)(O)OCC(O)CO (centres unmarked) [glycerol 3-phosphate]", "chemotaxis (capillary assay)", "significantly greater"),
    ("O=C(O)[C@@H](O)COP(=O)(O)O [3-phosphoglycerate]", "chemotaxis (capillary assay)", "significantly greater"),
    ("O=CC(O)COP(=O)(O)O (centres unmarked) [glyceraldehyde 3-phosphate]", "chemotaxis (capillary assay)", "Modest chemoattraction"),
]

###

target: LBD of chemoreceptor R10 (WP_028866120.1); assay: ITC binding to R10-LBD; details: 20 °C, Nb = no binding
Reported Kd values follow for various compounds

# compound, readout unit, Kd
data = [
    ("O=C(O)CO [Glycolate]", "µM", 322),
    ("C[C@H](O)C(=O)O [L-lactate]", "µM", 463),
    ("O=C(O)CCC(=O)O [Succinate]", "µM", 362),
]

###

pKd: −log10 of the molar value.
So I've got pKd readings for LBD of chemoreceptor R9 (WP_189529961.1) (Paludibacterium paludis, UniProt A0A918NWY2), take a look.
parameter measured: pKd

# molecule, quantitative result
records = [
    ("CC(CC(=O)O)C(=O)O (stereo not shown) [Methylsuccinate]", 3.60),
    ("O=C(O)CC(Br)C(=O)O (stereo not shown) [Bromosuccinate]", 3.70),
    ("O=C(O)CC(O)C(=O)O (stereo not shown) [Malate]", 3.73),
    ("O=C(O)CC(CC(=O)O)C(=O)O [Tricarballylate]", 3.86),
]

###

target: LBD of chemoreceptor R6 (WP_174062248.1); assay: ITC binding to R6-LBD; details: 20 °C, Nb = no binding

# compound, Kd / µM
measured = [
    ("O=C(O)CCC(=O)O [Succinate]", 90),
    ("O=C(O)/C=C/C(=O)O [Fumarate]", 90),
    ("O=C(O)CC(O)C(=O)O (stereo not drawn) [Malate]", 63),
]

###

molecular target: LBD of chemoreceptor R4 (WP_158281851.1) (Rivihabitans pingtungensis)
Sequence (A0A318KJN4 entry or part of it): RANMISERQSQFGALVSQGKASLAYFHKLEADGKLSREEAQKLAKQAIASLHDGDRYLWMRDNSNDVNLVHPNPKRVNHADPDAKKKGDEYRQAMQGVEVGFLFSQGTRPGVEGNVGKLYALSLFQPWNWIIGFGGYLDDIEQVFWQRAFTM
pKd: −log10 of the molar value.
parameter measured: pKd

# molecule, parameter measured, quantitative result
data = [
    ("O=CC(O)COP(=O)(O)O (centres unmarked) [glyceraldehyde 3-phosphate]", "pKd", 4.00),
    ("O=P(O)(O)OC(CO)CO [glycerol 2-phosphate]", "pKd", 4.22),
    ("O=C(O)[C@@H](O)COP(=O)(O)O [3-phosphoglycerate]", "pKd", 3.03),
    ("O=C(CO)COP(=O)(O)O [dihydroxyacetone phosphate]", "pKd", 3.64),
    ("O=P(O)(O)OCC(O)CO (centres unmarked) [glycerol 3-phosphate]", "pKd", 5.15),
]

###

molecular target: ligand binding domain of the chemoreceptor ECA_RS12390 (PacP-LBD, R1, WP_011094075.1) (Pectobacterium atrosepticum, UniProt Q6D464)
Sequence (Q6D464 entry or part of it): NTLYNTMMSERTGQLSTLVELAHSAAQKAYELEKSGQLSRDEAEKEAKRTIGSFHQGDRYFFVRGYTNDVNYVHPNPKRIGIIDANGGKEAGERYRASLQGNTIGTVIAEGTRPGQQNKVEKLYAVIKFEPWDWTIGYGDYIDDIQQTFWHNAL
Listed below: Kd values for each entry.
parameter measured: Kd

# compound, parameter measured, result
measured = [
    ("O=C(O)[C@@H](O)COP(=O)(O)O [3-phosphoglycerate]", "Kd", "88 µM"),
    ("O=P(O)(O)OCC(O)CO (centres unmarked) [glycerol 3-phosphate]", "Kd", "3 µM"),
    ("O=P(O)(O)OC(CO)CO [glycerol 2-phosphate]", "Kd", "72 µM"),
    ("O=C(CO)COP(=O)(O)O [dihydroxyacetone phosphate]", "Kd", "13 µM"),
    ("O=CC(O)COP(=O)(O)O (centres unmarked) [glyceraldehyde 3-phosphate]", "Kd", "58 µM"),
]
